test system: SK-OV-3 ovarian; test: NCI-60 one-dose screen, 48 h; conditions: 10 µM unless noted
Compounds without any hit were thinned out: in the full panel of roughly 83,000, 20% have a hit. Active and inactive are the calls of the source. How the source made its calls: active means growth percent below 10; inactive means the rest.
Outcomes: T for active, F for inactive

[[record]]
compound = "Cc1cnc(N)nc1OCCNC(=O)c1cccc(-c2ccc(S(=O)(=O)Nc3ccc4c(c3)N(C(=O)C3CC3)CCC4)cc2)c1"
label = "F"

[[record]]
compound = "CCCn1ccnc1C(O)c1ccc(OCc2ccccc2)c(OC)c1 (stereo not drawn)"
label = "F"

[[record]]
compound = "CC1(C)C(=O)/C(=C\\c2ccco2)C[C@]2(C)[C@H]3CC=C4[C@@H]5C[C@](C)(C(=O)O)CC[C@]5(C)CC[C@@]4(C)[C@]3(C)CC[C@@H]12"
label = "T"

[[record]]
compound = "C=C(C)[C@@H]1CC[C@]2(c3ncc(C)o3)CC[C@]3(C)[C@H](CC[C@@H]4[C@@](C)(CCC#N)[C@H](C(=C)C)CC[C@]43C)[C@@H]12"
label = "T"

[[record]]
compound = "O=S(=O)(c1ccc(N/N=C\\c2ccccc2Cl)cc1)c1ccc(N/N=C/c2ccccc2Cl)cc1"
label = "F"

[[record]]
compound = "O=C(CCNCc1ccccc1)c1ccccc1"
label = "F"

[[record]]
compound = "Cc1cc(NN=C(c2ccc(O)cc2)c2ccc(O)cc2)c([N+](=O)[O-])cc1[N+](=O)[O-]"
label = "F"

[[record]]
compound = "CC(C)c1ccc(C(=O)Nc2sc3c(c2C#N)CCC(=O)C3)cc1"
label = "F"


----------
tested on: TK-10 renal; assay: NCI-60 one-dose screen, 48 h (100 = growth as untreated, 0 = no growth, -100 = all killed); settings: 10 µM unless noted
This is part of a sample that, as a whole, favours compounds with a hit. Of some 83,000 tested, about 20% had one in any assay.
Measured growth, listed per entry.
reported-metric: growth (%)

[[record]]
smiles_str = "CN(Cc1cccc(C(F)(F)F)c1)C(=O)[C@@H](CC(=O)N1CCC(N2CCCCC2)CC1)N1C(=O)[C@@H](N2C(=O)OC[C@@H]2c2ccccc2)[C@H]1/C=C/c1ccccc1"
meas_value = 93.6

[[record]]
smiles_str = "CC1=CC[C@@H]2C(C)(C)C(=O)CC[C@@]2(C)[C@@H]1COc1ccc2ccc(=O)oc2c1"
meas_value = 82

[[record]]
smiles_str = "Nc1nnc(CSc2nnc3n(Cc4ccccc4)c(=O)c4c5c(sc4n23)CCCC5)s1"
meas_value = 113

[[record]]
smiles_str = "C[C@]12CCc3c(ccc4cc(O)ccc34)[C@@H]1CC[C@H]2O"
meas_value = 102

[[record]]
smiles_str = "CC(C)C1=NOC(=O)C1=Cc1cn(-c2ccccc2)nc1-c1ccccc1"
meas_value = 82.3

[[record]]
smiles_str = "COc1cc2c(=O)[nH]c3cc([N+](=O)[O-])ccc3c2cc1[N+](=O)[O-]"
meas_value = 52.1

[[record]]
smiles_str = "O=C(NCc1ccccc1)C(Cl)Cl"
meas_value = 90.2

[[record]]
smiles_str = "NC(=O)c1cccc(-c2ccc(S(=O)(=O)Nc3ccc4c(c3)N(C(=O)C3CC3)CCC4)cc2)c1"
meas_value = 77.8

[[record]]
smiles_str = "O=C(N/N=C/c1c(Cl)cccc1Cl)c1cccc(Nc2ccnc(C(F)(F)F)c2)c1"
meas_value = 90.8

